The reader will find reported log10 of EC50 values listed item by item below.
target: human CB2 receptor (Homo sapiens, UniProt P34972); test: PathHunter β-arrestin assay, CB2
Sequence (P34972 whole entry): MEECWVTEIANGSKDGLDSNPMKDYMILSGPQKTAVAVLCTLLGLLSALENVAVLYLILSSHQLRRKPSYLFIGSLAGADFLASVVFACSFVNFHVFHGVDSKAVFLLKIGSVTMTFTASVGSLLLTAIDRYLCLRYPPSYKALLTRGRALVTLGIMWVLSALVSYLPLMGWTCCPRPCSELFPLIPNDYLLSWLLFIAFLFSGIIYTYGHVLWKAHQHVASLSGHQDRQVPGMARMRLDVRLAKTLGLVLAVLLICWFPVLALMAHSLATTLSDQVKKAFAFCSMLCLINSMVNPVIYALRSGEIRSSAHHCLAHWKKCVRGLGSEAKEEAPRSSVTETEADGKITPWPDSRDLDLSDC
PROPERTY_NAME: log10 of EC50 (log10 of the value in µM)

>  <MOLECULE>
O=C(NC1(CO)CCC1)c1nn(-c2c[n+]([O-])ccn2)c2c1C[C@H]1C[C@@H]21

>  <log10 of EC50>
-1.55

$$$$
>  <MOLECULE>
CC(C)(C)NNC(=O)c1nn(-c2c[n+]([O-])ccn2)c2c1C[C@@H]1C[C@H]21

>  <log10 of EC50>
-1.11

$$$$
>  <MOLECULE>
CC(C)[C@@H](C)NC(=O)c1nn(-c2c[n+]([O-])ccn2)c2c1C[C@@H]1C[C@H]21

>  <log10 of EC50>
-2.02

$$$$
>  <MOLECULE>
O=C(NC(CO)(CF)CF)c1nn(-c2cc(Cl)ccn2)c2c1C[C@@H]1C[C@H]21

>  <log10 of EC50>
-2.07

$$$$
>  <MOLECULE>
CC(C)(C)[C@@H](CO)NC(=O)c1nn(-c2cnccn2)c2c1C[C@H]1C[C@@H]21

>  <log10 of EC50>
-1.58

$$$$
>  <MOLECULE>
O=C(NC1(c2ccccn2)CCC1)c1nn(-c2c[n+]([O-])ccn2)c2c1C[C@@H]1C[C@H]21

>  <log10 of EC50>
-1.50

$$$$
>  <MOLECULE>
CC(C)(CO)NC(=O)c1nn(-c2ccc(F)cn2)c2c1C[C@H]1C[C@@H]21

>  <log10 of EC50>
-0.87

$$$$
>  <MOLECULE>
CC(C)[C@H](N)C(=O)OC[C@@H](NC(=O)c1nn(-c2c[n+]([O-])ccn2)c2c1C[C@@H]1C[C@H]21)C(C)(C)C

>  <log10 of EC50>
-1.30

$$$$
>  <MOLECULE>
CCNC(=O)[C@@H](NC(=O)c1nn(-c2c[n+]([O-])ccn2)c2c1C[C@H]1C[C@@H]21)C(C)(C)C

>  <log10 of EC50>
-2.96

$$$$
>  <MOLECULE>
CC(C)(C)NC(=O)c1nn(-c2cnccn2)c2c1C[C@H]1C[C@@H]21

>  <log10 of EC50>
-1.46

$$$$
>  <MOLECULE>
COC(=O)[C@@H](NC(=O)c1nn(-c2c[n+]([O-])ccn2)c2c1C[C@H]1C[C@@H]21)C(C)(C)C

>  <log10 of EC50>
-3.15

$$$$
>  <MOLECULE>
O=C(N[C@H](CO)C1CCOCC1)c1nn(-c2c[n+]([O-])ccn2)c2c1C[C@H]1C[C@@H]21

>  <log10 of EC50>
-1.76

$$$$
>  <MOLECULE>
CC(C)(C)[C@@H](CO)NC(=O)c1nn(-c2cnccn2)c2c1C[C@@H]1C[C@H]21

>  <log10 of EC50>
-1.31

$$$$
>  <MOLECULE>
CC(C)(CF)NC(=O)c1nn(-c2cc(Cl)ccn2)c2c1C[C@@H]1C[C@H]21

>  <log10 of EC50>
-2.42

$$$$
>  <MOLECULE>
CNC(=O)[C@@H](NC(=O)c1nn(-c2c[n+]([O-])ccn2)c2c1C[C@H]1C[C@@H]21)C(C)(C)C

>  <log10 of EC50>
-3.10

$$$$
>  <MOLECULE>
CC(C)(COP(=O)(O)O)NC(=O)c1nn(-c2cc(C#N)ccn2)c2c1C[C@H]1C[C@@H]21

>  <log10 of EC50>
-0.03

$$$$
>  <MOLECULE>
O=C(NC1(C(F)(F)F)CC1)c1nn(-c2cnccn2)c2c1C[C@@H]1C[C@H]21

>  <log10 of EC50>
-1.77

$$$$
>  <MOLECULE>
CC1(NC(=O)c2nn(-c3c[n+]([O-])ccn3)c3c2C[C@H]2C[C@@H]32)CCC1

>  <log10 of EC50>
-2.15

$$$$
>  <MOLECULE>
CC(C)[C@@H](C)NC(=O)c1nn(-c2c[n+]([O-])ccn2)c2c1C[C@H]1C[C@@H]21

>  <log10 of EC50>
-2.38

$$$$
>  <MOLECULE>
CC(C)(C)[C@@H](CF)NC(=O)c1nn(-c2c[n+]([O-])ccn2)c2c1C[C@H]1C[C@@H]21

>  <log10 of EC50>
-3.00

$$$$
>  <MOLECULE>
COC(=O)C(NC(=O)c1nn(-c2c[n+]([O-])ccn2)c2c1C[C@H]1C[C@@H]21)c1ccccn1 (stereo partly shown)

>  <log10 of EC50>
-1.55

$$$$
>  <MOLECULE>
O=C(NC1(C(F)(F)F)CCC1)c1nn(-c2cnccn2)c2c1C[C@@H]1C[C@H]21

>  <log10 of EC50>
-2.35

$$$$
>  <MOLECULE>
CC(C)(CO)NC(=O)c1nn(-c2ccc(Cl)cn2)c2c1C[C@H]1C[C@@H]21

>  <log10 of EC50>
-1.04

$$$$
>  <MOLECULE>
CC(C)(NC(=O)c1nn(-c2c[n+]([O-])ccn2)c2c1C[C@@H]1C[C@H]21)C(F)(F)F

>  <log10 of EC50>
-2.63

$$$$
>  <MOLECULE>
O=C(N[C@H]1c2ccccc2C[C@@H]1O)c1nn(-c2c[n+]([O-])ccn2)c2c1C[C@@H]1C[C@H]21

>  <log10 of EC50>
-2.34

$$$$
>  <MOLECULE>
O=C(N[C@H](CO)C1CCOCC1)c1nn(-c2cnccn2)c2c1C[C@H]1C[C@@H]21

>  <log10 of EC50>
-1.23

$$$$
>  <MOLECULE>
N#Cc1ccnc(-n2nc(C(=O)N[C@H](CO)CC(F)(F)F)c3c2[C@H]2C[C@H]2C3)c1

>  <log10 of EC50>
-1.79

$$$$
>  <MOLECULE>
CC(C)(CO)NC(=O)c1nn(-c2cc(F)ccn2)c2c1C[C@H]1C[C@@H]21

>  <log10 of EC50>
-1.68

$$$$
